# test.details: Plasma and tissue distribution in SD rats
# Assay type: in vivo
# measurement.parameters: female, Sprague-Dawley; F SD rat, Bladder
property: Cmax (ng/mL)
Reply numerically in ng/mL, unit not repeated.

// returns reported Cmax for input C[C@@H](c1ccc(Nc2cc(Nc3ncc(F)cc3S(C)(=O)=O)ncn2)nc1)N1CC2(COC2)C1 [Compound 2] 2650

###

# test.details: Plasma and tissue distribution in SD rats
# Assay type: in vivo
# measurement.parameters: female, SD, rat, bone marrow, po, 10 mg/kg, female SD rat, PO 10 mg/kg, Bone Marrow; Tissue AUC0-last/Plasma AUC0-last; read-out: AUC Ratio
property: Kp
// no unit, no text: just the number

Form field: reported Kp of C[C@@H](c1ccc(Nc2cc(Nc3ncccc3S(C)(=O)=O)ncn2)nc1)N1CC2(COC2)C1 [Compound 1] 4.64

###

# test.details: Plasma and tissue distribution in SD rats
# Assay type: in vivo
# measurement.parameters: female, SD, rat, ovary and uterus, po, 10 mg/kg, female SD rat, PO 10 mg/kg, Ovary & Uterus; Tissue AUC0-last/Plasma AUC0-last; read-out: AUC Ratio
# Procedure: The following Example describes the methods and data used to evaluate the tissue distribution of TYK2 inhibitors following the administration of either compound 1 or compound 2. Thirty (30, 15/sex) SD rats supplied by Beijing Vital River Laboratory Animal Technology Co., Ltd. were used in this study. […] The room (s) was controlled and monitored for relative humidity (targeted mean range 40% to 70%) and temperature (targeted mean range 20° C. to 26° C.) with 15 or above air changes/hour. […]
property: Kp
Please reply with the value in numeric form only.

Request the reported Kp associated with "C[C@@H](c1ccc(Nc2cc(Nc3ncccc3S(C)(=O)=O)ncn2)nc1)N1CC2(COC2)C1" 1.29

###

As shown below, each of these compounds has a reported Kp value.
# test.details: Plasma and tissue distribution in SD rats
# Assay type: in vivo
# measurement.parameters: Sprague-Dawley (SD), rat, bone marrow / plasma, oral, SD rat, Bone Marrow; read-out: Tissue/Plasma Ratio (AUCinf)
Would you mind answering with just the numeric figure?

query.smiles | Kp
C[C@@H](c1ccc(Nc2cc(Nc3ncc(F)cc3S(C)(=O)=O)ncn2)nc1)N1CC2(COC2)C1 | 9.6

So what does the record say about Kp for "C[C@@H](c1ccc(Nc2cc(Nc3ncccc3S(C)(=O)=O)ncn2)nc1)N1CC2(COC2)C1" ? 4.3

###

# test.details: Plasma and tissue distribution in SD rats
# Assay type: in vivo
# measurement.parameters: female SD rat, PO 10 mg/kg, Bone Marrow
property: Cmax (ng/g)
Quick reminder: number only, in ng/g, skip the unit.

Quick one: Cmax of C[C@@H](c1ccc(Nc2cc(Nc3ncccc3S(C)(=O)=O)ncn2)nc1)N1CC2(COC2)C1 [Compound 1] ? 3840

###

# test.details: Plasma and tissue distribution in SD rats
# Assay type: in vivo
# measurement.parameters: Sprague-Dawley; male SD rat, PO 10 mg/kg, Kidney (left and right)
property: Cmax (ng/g)
Write the value in ng/g as a bare number.

Recorded Cmax for "C[C@@H](c1ccc(Nc2cc(Nc3ncccc3S(C)(=O)=O)ncn2)nc1)N1CC2(COC2)C1" , please? 6140

###

# test.details: Plasma and tissue distribution in SD rats
# Type: in vivo
# measurement.parameters: female, Sprague-Dawley (SD); F SD rat, Heart
property: Tmax (min)
Numeric answer only, unit min assumed.

I have this compound here, "C[C@@H](c1ccc(Nc2cc(Nc3ncc(F)cc3S(C)(=O)=O)ncn2)nc1)N1CC2(COC2)C1" , and I need its recorded Tmax. 30

###

# test.details: Plasma and tissue distribution in SD rats
# Type: in vivo
# measurement.parameters: female, SD, rat, ovaries, F SD rat, Ovaries; read-out: AUClast
# Method: The following Example describes the methods and data used to evaluate the tissue distribution of TYK2 inhibitors following the administration of either compound 1 or compound 2. Thirty (30, 15/sex) SD rats supplied by Beijing Vital River Laboratory Animal Technology Co., Ltd. were used in this study. […] The room (s) was controlled and monitored for relative humidity (targeted mean range 40% to 70%) and temperature (targeted mean range 20° C. to 26° C.) with 15 or above air changes/hour. […]
property: AUC(0-t) (ng·h/mL)
The response must be a number in ng·h/mL with no trailing unit.

Can you look up the measured AUC(0-t) of C[C@@H](c1ccc(Nc2cc(Nc3ncc(F)cc3S(C)(=O)=O)ncn2)nc1)N1CC2(COC2)C1 [Compound 2] for me? 4360

###

# test.details: Plasma and tissue distribution in SD rats
# Type: in vivo
# measurement.parameters: female, Sprague-Dawley (SD), rat, large intestine, F SD rat, L. Intestine; read-out: AUClast
property: AUC(0-t) (ng·h/mL)
Give the value in ng·h/mL but do not write ng·h/mL after it.

Endpoint output: AUC(0-t) of C[C@@H](c1ccc(Nc2cc(Nc3ncc(F)cc3S(C)(=O)=O)ncn2)nc1)N1CC2(COC2)C1 [Compound 2] . Value? 95000

###

# test.details: Plasma and tissue distribution in SD rats
# Assay type: in vivo
# measurement.parameters: male, Sprague-Dawley (SD); M SD rat, Kidney
property: Cmax (ng/mL)
Give just the numeric value; ng/mL need not be written.

Param item = "C[C@@H](c1ccc(Nc2cc(Nc3ncc(F)cc3S(C)(=O)=O)ncn2)nc1)N1CC2(COC2)C1" ; retrieve measured Cmax. 9620

###

# test.details: Plasma and tissue distribution in SD rats
# Assay type: in vivo
# measurement.parameters: Sprague-Dawley; male SD rat, PO 10 mg/kg, Large intestine
# Experimental: The following Example describes the methods and data used to evaluate the tissue distribution of TYK2 inhibitors following the administration of either compound 1 or compound 2. Thirty (30, 15/sex) SD rats supplied by Beijing Vital River Laboratory Animal Technology Co., Ltd. were used in this study. […] The room (s) was controlled and monitored for relative humidity (targeted mean range 40% to 70%) and temperature (targeted mean range 20° C. to 26° C.) with 15 or above air changes/hour. […]
property: Tmax

Reported Tmax, compound C[C@@H](c1ccc(Nc2cc(Nc3ncccc3S(C)(=O)=O)ncn2)nc1)N1CC2(COC2)C1 [Compound 1] : ____ 8 h

###

# test.details: Plasma and tissue distribution in SD rats
# Type: in vivo
# measurement.parameters: male SD rat, PO 10 mg/kg, Skin
# Experimental: The following Example describes the methods and data used to evaluate the tissue distribution of TYK2 inhibitors following the administration of either compound 1 or compound 2. Thirty (30, 15/sex) SD rats supplied by Beijing Vital River Laboratory Animal Technology Co., Ltd. were used in this study. […] The room (s) was controlled and monitored for relative humidity (targeted mean range 40% to 70%) and temperature (targeted mean range 20° C. to 26° C.) with 15 or above air changes/hour. […]
property: Cmax (ng/g)
Give your result in ng/g as a bare value.

Would you mind telling me what Cmax value was observed for "C[C@@H](c1ccc(Nc2cc(Nc3ncccc3S(C)(=O)=O)ncn2)nc1)N1CC2(COC2)C1" ? 868

###

# test.details: Plasma and tissue distribution in SD rats
# Assay type: in vivo
# measurement.parameters: male, SD, rat, bone marrow / plasma, po, 10 mg/kg, male SD rat, PO 10 mg/kg, Bone Marrow; Tissue AUC0-last/Plasma AUC0-last; read-out: AUC Ratio
property: Kp
// response body must contain only the number

What measured Kp goes with "C[C@@H](c1ccc(Nc2cc(Nc3ncccc3S(C)(=O)=O)ncn2)nc1)N1CC2(COC2)C1" ? 3.97

###

# test.details: Plasma and tissue distribution in SD rats
# Format: in vivo
# measurement.parameters: female SD rat, PO 10 mg/kg, Small intestine
property: Cmax (ng/g)
Kindly answer with a numeric value in ng/g, unit omitted.

What Cmax value was documented for this molecule, "C[C@@H](c1ccc(Nc2cc(Nc3ncccc3S(C)(=O)=O)ncn2)nc1)N1CC2(COC2)C1" ? 12300

###

# test.details: Plasma and tissue distribution in SD rats
# Format: in vivo
# measurement.parameters: male SD rat, PO 10 mg/kg, Bladder
property: Tmax (h)
Field: numeric (h). Do not append units.

Using the record for "C[C@@H](c1ccc(Nc2cc(Nc3ncccc3S(C)(=O)=O)ncn2)nc1)N1CC2(COC2)C1" , report its Tmax. 2

###

The entries below are paired with their reported Kp.
# test.details: Plasma and tissue distribution in SD rats
# Assay type: in vivo
# measurement.parameters: Sprague-Dawley, rat, lung, oral, SD rat, Lung; read-out: Tissue/Plasma Ratio (AUCinf)

compound | Kp
C[C@@H](c1ccc(Nc2cc(Nc3ncccc3S(C)(=O)=O)ncn2)nc1)N1CC2(COC2)C1 [Compound 1] | 2

Item C[C@@H](c1ccc(Nc2cc(Nc3ncc(F)cc3S(C)(=O)=O)ncn2)nc1)N1CC2(COC2)C1 [Compound 2] has what recorded Kp? 7.1

###

# test.details: Plasma and tissue distribution in SD rats
# Format: in vivo
# measurement.parameters: female SD rat, PO 10 mg/kg, Fat
# Description: The following Example describes the methods and data used to evaluate the tissue distribution of TYK2 inhibitors following the administration of either compound 1 or compound 2. Thirty (30, 15/sex) SD rats supplied by Beijing Vital River Laboratory Animal Technology Co., Ltd. were used in this study. […] The room (s) was controlled and monitored for relative humidity (targeted mean range 40% to 70%) and temperature (targeted mean range 20° C. to 26° C.) with 15 or above air changes/hour. […]
property: Cmax (ng/g)
Number only, in ng/g; omit the unit.

Value lookup for Cmax; key = C[C@@H](c1ccc(Nc2cc(Nc3ncccc3S(C)(=O)=O)ncn2)nc1)N1CC2(COC2)C1 [Compound 1] 417
